molecular target: IL36R; test: Kd (SPR)
observation type: pKd
The scale used: pKd is minus the common logarithm of the concentration in molar units.

Would you kindly share the measured pKd for unnamed (protein) chain 1: QVQLVQSGAEVKKPGASVKVSCKASGYSFTSSWIHWVKQAPGQGLEWMGEINPGNVRTNYNENFRNKVTMTVDTSISTAYMELSRLRSDDTAVYYCTRVSFGEPYFDYWGQGTLVTVSS chain 2: QIVLTQSPGTLSLSPGERATMTCTASSSVSSSYFHWYQQKPGQAPRLWIYRTSRLASGVPDRFSGSGSGTDFTLTISRLEPEDAATYYCHQFHRSPLTFGAGTKLEIK ?
9.12

unnamed (protein) chain 1: QVQLVQSGAEVKKPGASVKVSCKASGYTFTSNWIHWVKQAPGQGLEWMGEIYPGNSNTNYNENFRNKVTMTVDTSISTAYMELSRLRSDDTAVYYCTRVRYGYPYFDYWGQGTLVTVSS chain 2: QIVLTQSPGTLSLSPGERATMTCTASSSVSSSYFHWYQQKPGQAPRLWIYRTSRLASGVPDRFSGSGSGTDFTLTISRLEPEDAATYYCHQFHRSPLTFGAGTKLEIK ?
8.87

unnamed (protein) chain 1: QVQLVQSGAEVKKPGASVKVSCKASGYTFTSSWIHWVKQAPGQGLEWMGEIKPGNSNTNYNENFRNKVTMTVDTSISTAYMELSRLRSDDTAVYYCTRVSYGEPYFDYWGQGTLVTVSS chain 2: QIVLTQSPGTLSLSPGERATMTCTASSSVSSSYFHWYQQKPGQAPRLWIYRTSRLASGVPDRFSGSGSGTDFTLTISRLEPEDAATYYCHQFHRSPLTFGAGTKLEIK ?
6.86
